Values compiled from ChEMBL document CHEMBL1667752.

test system: Cannabinoid receptor 1 (Homo sapiens)
Sequence (P21554 whole entry): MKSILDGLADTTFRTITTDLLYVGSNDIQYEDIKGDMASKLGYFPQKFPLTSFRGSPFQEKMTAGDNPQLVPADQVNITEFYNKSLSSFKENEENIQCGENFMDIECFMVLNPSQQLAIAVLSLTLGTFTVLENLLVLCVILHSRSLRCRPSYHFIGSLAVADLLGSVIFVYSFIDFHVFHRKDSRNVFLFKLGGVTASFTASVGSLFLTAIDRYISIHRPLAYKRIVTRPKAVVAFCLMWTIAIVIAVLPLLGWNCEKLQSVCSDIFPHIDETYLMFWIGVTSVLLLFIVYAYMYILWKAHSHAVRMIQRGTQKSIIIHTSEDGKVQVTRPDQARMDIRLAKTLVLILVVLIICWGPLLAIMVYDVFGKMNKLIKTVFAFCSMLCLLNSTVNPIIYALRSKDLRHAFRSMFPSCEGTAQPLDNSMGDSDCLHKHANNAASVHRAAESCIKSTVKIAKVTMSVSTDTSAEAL
assay remarks: Displacement of [3H]CP 55940 from human CB1 receptor in cell free system
pKi: −log10 of the molar value.
Please use True whenever pKi is not below 6, and False whenever it is.

{"compound": "Cc1ccc(C(=O)NC2C(C)(C)[C@@H]3CC[C@]2(C)C3)cc1S(=O)(=O)N1CCOCC1 (stereo not given in full)", "label": "True"}
{"compound": "COc1ccc(OC)c2c(=O)c(C(=O)NC34CC5CC(CC(C5)C3)C4)c[nH]c12", "label": "False"}
{"compound": "Cc1ccc2c(c1)Cc1c(C(=O)NN3CCCCC3)nn(-c3ccc(Cl)cc3Cl)c1-2", "label": "True"}
{"compound": "CCCCCCn1cc(C(=O)NC2CCCCC2)c(=O)c2ccc(C)nc21", "label": "True"}
{"compound": "CCC(C)(C)C(=O)Cc1cc(C)c(C)c(S(=O)(=O)N2CCCCCC2)c1", "label": "False"}
{"compound": "CC1=CC[C@@H]2[C@@H](C1)c1c(O)cc(C(C)(C)c3cccs3)cc1OC2(C)C", "label": "True"}
{"compound": "CC1(C)C(C(=O)c2cn(CC3CCOCC3)c3c(COc4ccccc4)cccc23)C1(C)C", "label": "True"}
{"compound": "C=C1CC[C@@H]2[C@@H](C1)c1c(OC)cc(C(C)(C)CCCCCC)cc1OC2(C)C", "label": "False"}
{"compound": "CCCCCCC1(c2cc(O)c3c(c2)OC(C)(C)[C@@H]2CC=C(C)C[C@@H]32)CC1(Cl)Cl (stereo not given in full)", "label": "True"}
{"compound": "CCCCCCC1(c2cc(O)c3c(c2)OC(C)(C)[C@@H]2CC=C(C)C[C@@H]32)OCCO1", "label": "True"}
{"compound": "CCCCCn1c(C)c(C(=O)c2ccc(CCC)c3ccccc23)c2ccccc21", "label": "True"}
{"compound": "CCCCCn1cc(C(=O)NC2C(C)(C)[C@@H]3CC[C@@]2(C)C3)c(=O)c2cc(-c3ccco3)ccc21 (stereo not given in full)", "label": "True"}
{"compound": "CCCCCn1c(C)c(C(=O)c2ccc(CCCC)c3ccc(C)cc23)c2ccccc21", "label": "True"}
{"compound": "CCCCCCC1CCCc2c1cc1c(c2O)[C@@H]2CC(C)=CC[C@H]2C(C)(C)O1 (stereo not given in full)", "label": "True"}
{"compound": "CC1(C)C(C(=O)c2cn(CC3CCOCC3)c3ccc(OCc4ccccc4)cc23)C1(C)C", "label": "True"}
{"compound": "N#Cc1c(Oc2cccc(OS(=O)(=O)CCCC(F)(F)F)c2)cccc1C(F)(F)F", "label": "True"}
{"compound": "CC1(Cc2ccccc2)COc2cc(C(=O)N3CCCCC3)ccc21 (stereo not given)", "label": "False"}
{"compound": "CCC(C)(C)C(=O)Cc1cc(C)c(C)c(S(=O)(=O)N2CCCCC2)c1", "label": "True"}
{"compound": "CCCCCCC1(c2cc(O)c3c(c2)OC(C)(C)[C@@H]2CC=C(C)C[C@@H]32)CC1", "label": "True"}
{"compound": "CC1=CC[C@@H]2[C@@H](C1)c1c(OC(=O)CCCN3CCOCC3)cc(C(C)(C)CCCCC#N)cc1OC2(C)C", "label": "True"}
{"compound": "Cc1c(Cl)ccc2c(=O)c(C(=O)NC34CC5CC(CC(C5)C3)C4)c[nH]c12", "label": "False"}
{"compound": "Cc1c(C(C)(C)C)s/c(=N\\S(=O)(=O)c2cccc3ccccc23)n1C1CC1", "label": "False"}
{"compound": "CC1(C)C(C(=O)c2cn(CC3CCOCC3)c3cc(O)ccc23)C1(C)C", "label": "False"}
{"compound": "Cc1nc(C(=O)NC23CC4CC(CC2C4)C3)c(C)n1-c1ccccc1", "label": "False"}
{"compound": "Cc1c(C(C)(C)C)s/c(=N\\C(=O)c2ccc(Br)cc2)n1CC1CC1", "label": "True"}
{"compound": "CCCCCn1cc(C(=O)NC23CC4CC(CC(C4)C2)C3)c(=O)c2cccc(C)c21", "label": "False"}
{"compound": "CCC1CCC(C(=O)c2cn(CCN3CCOCC3)c3ccccc23)CC1 (stereo not given)", "label": "True"}
{"compound": "CC1(C)C(C(=O)c2cn(CCN3CCOCC3)c3cccc(N)c23)C1(C)C", "label": "False"}
{"compound": "COCCn1c(C)c(C(C)(C)C)s/c1=N\\C(=O)c1ccc(C(F)(F)F)cc1", "label": "False"}
{"compound": "CCCCCOc1c(OC)ccc2cc(C(=O)NCc3ccc4c(c3)OCO4)c(=O)[nH]c12", "label": "False"}

====

Species: Homo sapiens
assay remarks: Selectivity ratio of Ki for human CB1 to Ki for human CB2

{"compound": "Cc1ccc(NC(=O)C2CCCCC2(C)C)cc1S(=O)(=O)N1CCOCC1 (centres undefined)", "log(ratioKi)": 1.85}
{"compound": "CC1=CC[C@@H]2[C@@H](C1)c1c(OC(=O)CCCN3CCOCC3)cc(C(C)(C)CCCCC#N)cc1OC2(C)C", "log(ratioKi)": 0.02}
{"compound": "CCCCCn1cc(C(=O)NC23CC4CC(CC(C4)C2)C3)c(=O)c2cc(Sc3ccccc3)ccc21", "log(ratioKi)": 2.28}
{"compound": "CCCCCn1cc(C(=O)NC23CC4CC(CC(C4)C2)C3)c(=O)c2cc(-c3ccc(Cl)s3)ccc21", "log(ratioKi)": 2.35}
{"compound": "COc1ccc(OC)c2c(=O)c(C(=O)NC34CC5CC(CC(C5)C3)C4)c[nH]c12", "log(ratioKi)": 1.6}
{"compound": "CCCCCn1cc(C(=O)NC23CC4CC(CC(C4)C2)C3)c(=O)c2cc(-c3ccc(Cl)cc3)ccc21", "log(ratioKi)": 3}
{"compound": "CCCCCn1cc(C(=O)NC23CC4CC(CC(C4)C2)C3)c(=O)c2cc(CC)ccc21", "log(ratioKi)": 1.74}
{"compound": "CCCCCn1cc(C(=O)NC2C3CC4CC(C3)CC2C4)c(=O)c2ccccc21 (centres undefined)", "log(ratioKi)": 2.16}
{"compound": "CCCCCn1cc(C(=O)NC23CC4CC(CC(C4)C2)C3)c(=O)c2cc(-c3ccc(F)cc3F)ccc21", "log(ratioKi)": 2.79}

====

Organism: Homo sapiens
assay remarks: Selectivity ratio of Ki for human CB1 to Ki for human CB2
log(ratioKi): recorded values

{"molecule": "Cc1c(C(C)(C)C)s/c(=N\\S(=O)(=O)c2cccc3ccccc23)n1C1CC1", "log(ratioKi)": 2.02}
{"molecule": "CC1=CC[C@@H]2[C@@H](C1)c1c(O)cc(C3(C#N)CCCCC3)cc1OC2(C)C", "log(ratioKi)": 0.34}
{"molecule": "C#CCn1cc(C(=O)NC23CC4CC(CC(C4)C2)C3)c(=O)c2cc(Br)ccc21", "log(ratioKi)": 1.81}
{"molecule": "Cc1nc(C(=O)NC23CC4CC(CC(C4)C2)C3)c(C)n1-c1ccccc1", "log(ratioKi)": 3.2}
{"molecule": "CCC(C)(C)C(=O)Nc1cc(CN2CCOCC2)c(C)cn1", "log(ratioKi)": 2.19}
{"molecule": "CC1=CC[C@@H]2[C@@H](C1)c1c(O)cc(C3(C4CCCCC4)SCCS3)cc1OC2(C)C", "log(ratioKi)": 0.24}
{"molecule": "CCCCCn1cc(C(=O)NC2C(C)(C)[C@@H]3CC[C@@]2(C)C3)c(=O)c2cc(-c3ccco3)ccc21 (some centres not stated)", "log(ratioKi)": 2.3}

====

test system: UniProtKB P34972
Sequence (P34972 whole entry): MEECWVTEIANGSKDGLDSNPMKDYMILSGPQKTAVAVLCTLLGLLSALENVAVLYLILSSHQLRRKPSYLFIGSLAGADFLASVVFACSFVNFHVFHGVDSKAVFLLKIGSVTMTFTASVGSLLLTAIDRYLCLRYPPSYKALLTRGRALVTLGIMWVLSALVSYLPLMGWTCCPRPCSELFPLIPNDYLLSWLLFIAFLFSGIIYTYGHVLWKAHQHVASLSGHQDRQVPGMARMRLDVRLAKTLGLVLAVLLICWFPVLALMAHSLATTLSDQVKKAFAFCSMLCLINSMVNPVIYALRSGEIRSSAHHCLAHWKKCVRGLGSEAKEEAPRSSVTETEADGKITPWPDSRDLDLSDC
assay remarks: Displacement of [3H]CP 55940 from human CB2 receptor in cell free system
assay conditions: read-out: Ki
pKi: −log10 of the molar value.

{"sample smiles": "CC1(C)C(C(=O)c2cn(CC3CCOCC3)c3cc(O)ccc23)C1(C)C", "test system": "UniProtKB P34972", "pKi": 8.08}
{"sample smiles": "Cc1c(C(C)(C)C)s/c(=N\\C(=O)c2ccc(Br)cc2)n1CC1CC1", "test system": "UniProtKB P34972", "pKi": 8.92}
{"sample smiles": "COCc1ccc2c(c1)c(C(=O)C1C(C)(C)C1(C)C)cn2CC1CCOCC1", "test system": "UniProtKB P34972", "pKi": 7.60}
{"sample smiles": "Cc1ccc2c(C(=O)C3C(C)(C)C3(C)C)cn(CC3CCOCC3)c2c1", "test system": "UniProtKB P34972", "pKi": 9.70}
{"sample smiles": "CCCCCn1cc(C(=O)NC23CC4CC(CC(C4)C2)C3)c(=O)c2cccc(C)c21", "test system": "UniProtKB P34972", "pKi": 8.31}
{"sample smiles": "Cc1nc(C(=O)Nc2ccccc2C(F)(F)F)c(C)n1-c1ccccc1", "test system": "UniProtKB P34972", "pKi": 8.46}
{"sample smiles": "COc1ccc(OC)c2c(=O)c(C(=O)NC34CC5CC(CC(C5)C3)C4)c[nH]c12", "test system": "UniProtKB P34972", "pKi": 7.28}
{"sample smiles": "CC1(C)C(C(=O)c2cn(CC3CCOCC3)c3c(COc4ccccc4)cccc23)C1(C)C", "test system": "UniProtKB P34972", "pKi": 8.52}
{"sample smiles": "Cc1c(Cl)ccc2c(=O)c(C(=O)NC34CC5CC(CC(C5)C3)C4)c[nH]c12", "test system": "UniProtKB P34972", "pKi": 7.59}
{"sample smiles": "CC1=CC[C@@H]2[C@@H](C1)c1c(O)cc(C(C)(C)c3cccs3)cc1OC2(C)C", "test system": "UniProtKB P34972", "pKi": 9.04}
{"sample smiles": "Cc1ccc2c(=O)c(C(=O)NC3CCCC3)cn(CCN3CCOCC3)c2n1", "test system": "UniProtKB P34972", "pKi": 7.30}
{"sample smiles": "CCCCCCC(C)(C)c1cc(OC)c2c(c1)OC(C)(C)[C@@H]1CC=C(C)C[C@@H]21", "test system": "UniProtKB P34972", "pKi": 8.19}
